Task for the reader: assign each of the following compounds its reported GI50.
system: M14; experiment: Cytotoxicity against human M14 cells after 24 hrs by SRB assay; format: functional; conditions: M14, 24 h
Give your result in µM as a bare value.

GI50 measured on `O=C(/C=C/c1cc2ccccc2[nH]c1=O)c1ccc(O)cc1` = 2.6

GI50 measured on `COc1ccc(C(=O)/C=C/c2cc3ccccc3[nH]c2=O)cc1` = 4.06

GI50 measured on `O=C(/C=C/c1cc2ccccc2[nH]c1=O)c1ccc(Cl)cc1` = 7.54

GI50 measured on `O=C(/C=C/c1cc2ccccc2[nH]c1=O)/C=C/c1cc2ccccc2[nH]c1=O` = 0.393
